Source: patent US20240132578A1

Listed next: entries and their corresponding IC50 (µg/mL), pseudovirus neutralization.
# TESTED ON: HIV-1 IAVI-C3 Env (clade C pseudovirus) (HIV-1)
# TEST METHOD NOTES: cell-based or functional assay
Give just the number in µg/mL; leave the unit off.

[[record]]
binder = "1496_C09 (PG9) (TCN-109) (antibody, V domains shown) VH: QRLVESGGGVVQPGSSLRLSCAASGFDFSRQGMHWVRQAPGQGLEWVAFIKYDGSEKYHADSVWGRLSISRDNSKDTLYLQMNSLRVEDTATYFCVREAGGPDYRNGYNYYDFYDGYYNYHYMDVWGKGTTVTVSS VL: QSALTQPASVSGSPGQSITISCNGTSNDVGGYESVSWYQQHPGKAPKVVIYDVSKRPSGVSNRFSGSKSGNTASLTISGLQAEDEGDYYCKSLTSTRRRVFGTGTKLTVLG"
unit_label = "µg/mL"
numeric_result = 12.9


Provide measured IC50 (µg/mL), pseudovirus neutralization value, entry: 1495_C14 (PGC14) (antibody, human IgG1, lambda, V domains shown) VH: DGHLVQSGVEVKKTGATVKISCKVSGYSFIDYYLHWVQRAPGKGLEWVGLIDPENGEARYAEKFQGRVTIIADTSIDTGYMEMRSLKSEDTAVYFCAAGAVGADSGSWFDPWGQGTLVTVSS VL: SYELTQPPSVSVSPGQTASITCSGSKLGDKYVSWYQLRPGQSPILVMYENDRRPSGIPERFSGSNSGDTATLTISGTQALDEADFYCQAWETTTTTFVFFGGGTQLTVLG
9.5

Provide measured IC50 (µg/mL), pseudovirus neutralization value, entry: 1443_C16 (PG16) (TCN-116) (antibody, V domains shown) VH: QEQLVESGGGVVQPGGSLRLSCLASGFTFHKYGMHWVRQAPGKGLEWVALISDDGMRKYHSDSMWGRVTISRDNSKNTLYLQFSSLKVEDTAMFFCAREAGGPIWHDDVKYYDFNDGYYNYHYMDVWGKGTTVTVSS VL: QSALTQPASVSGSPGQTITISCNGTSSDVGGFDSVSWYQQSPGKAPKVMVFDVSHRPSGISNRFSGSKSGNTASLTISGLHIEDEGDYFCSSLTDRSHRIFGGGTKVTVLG
14.8
